Biological target: c-kit (Homo sapiens)
Construct: human Mo7e cells which endogenously express c-kit; endogenous in cells; host or cells: human Mo7e cells (promegakaryocytic leukemia line), stimulated with human recombinant SCF
Sequence (P10721 26-976): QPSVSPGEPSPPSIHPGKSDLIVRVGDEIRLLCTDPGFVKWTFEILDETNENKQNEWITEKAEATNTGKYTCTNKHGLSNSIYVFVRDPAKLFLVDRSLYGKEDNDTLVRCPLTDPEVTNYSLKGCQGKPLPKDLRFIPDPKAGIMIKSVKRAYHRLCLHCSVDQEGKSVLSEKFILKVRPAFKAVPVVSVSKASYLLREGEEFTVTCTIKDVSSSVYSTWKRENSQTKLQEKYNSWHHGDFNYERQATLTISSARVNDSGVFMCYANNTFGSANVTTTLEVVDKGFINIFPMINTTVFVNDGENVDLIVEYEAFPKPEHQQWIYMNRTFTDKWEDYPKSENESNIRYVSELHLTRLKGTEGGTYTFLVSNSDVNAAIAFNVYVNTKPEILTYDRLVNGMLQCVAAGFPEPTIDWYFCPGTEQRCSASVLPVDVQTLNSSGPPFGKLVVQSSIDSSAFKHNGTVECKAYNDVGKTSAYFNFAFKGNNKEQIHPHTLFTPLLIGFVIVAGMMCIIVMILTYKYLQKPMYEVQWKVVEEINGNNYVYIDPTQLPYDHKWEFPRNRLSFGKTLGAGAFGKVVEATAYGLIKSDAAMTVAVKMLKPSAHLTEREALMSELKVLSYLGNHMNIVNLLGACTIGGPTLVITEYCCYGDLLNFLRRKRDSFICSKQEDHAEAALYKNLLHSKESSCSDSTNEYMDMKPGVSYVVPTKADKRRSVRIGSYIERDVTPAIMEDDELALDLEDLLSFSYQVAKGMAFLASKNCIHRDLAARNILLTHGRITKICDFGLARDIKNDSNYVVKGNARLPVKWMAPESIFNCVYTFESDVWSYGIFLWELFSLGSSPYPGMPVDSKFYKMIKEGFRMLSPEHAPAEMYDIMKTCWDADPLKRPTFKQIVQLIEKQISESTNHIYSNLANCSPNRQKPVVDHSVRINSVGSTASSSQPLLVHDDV
Experiment: Mo7e cell proliferation assay (SCF dependent proliferation)
Assay type: cell-based
Conditions: Table 2; Mo7e cells stimulated with human recombinant SCF, 48 hours; 20% FBS instead of 1% FBS (values marked *)
Threshold-based label: IC50 under 200 nM gives criterion met, IC50 not under 200 nM gives criterion not met.

Q: Confirm or reject: IC50 of COc1ccnc(-c2noc(-c3ccc(C)c(NC(=O)c4cnc5ccccn45)c3)n2)c1 [F33] lies strictly below 200 nM
A: criterion not met

Q: Please state whether IC50 is below 200 nM for Cc1ccc(-c2nc(-c3cccc(F)c3)no2)cc1NC(=O)c1cnc2ccccn12 [F36]
A: criterion met

Q: Find out if reported IC50 for Cc1ccc(-c2nc(-c3cccnc3OCC(F)(F)F)no2)cc1NC(=O)c1cnc2ccccn12 [F38] is less than 200 nM
A: criterion met

Q: Given Cc1ccc(-c2noc(-c3cccc(N4CCOCC4)c3)n2)cc1NC(=O)c1cnc2ccccn12 [F55] , is recorded IC50 strictly lower than 200 nM?
A: criterion not met

Q: Is IC50 strictly under 200 nM for the entry Cc1ccc(F)c(-c2noc(-c3ccc(C)c(NC(=O)c4cnc5ccccn45)c3)n2)c1 [F39] ?
A: criterion met

Q: Confirm or reject: IC50 of Cc1ccc(-c2nc(-c3ccc(Cl)cc3)no2)cc1NC(=O)c1cnc2ccccn12 [F27] lies strictly below 200 nM
A: criterion not met

Q: Is IC50 of Cc1ccc(-c2nc(-c3c(Cl)cccc3Cl)no2)cc1NC(=O)c1cnc2ccccn12 [F26] strictly below 200 nM?
A: criterion not met

Q: I'd appreciate it if you could check whether Cc1ccc(-c2noc(-c3ncccn3)n2)cc1NC(=O)c1cnc2ccccn12 [F48] has IC50 smaller than 200 nM.
A: criterion not met

Q: Input Cc1ccc(-c2nc(Cc3ccccc3OC(F)(F)F)no2)cc1NC(=O)c1cnc2ccccn12 [F43] ; condition: IC50 strictly below 200 nM. Does it hold?
A: criterion not met

Q: Could you please tell me whether IC50 recorded for Cc1ccc(-c2nc(-c3cnccc3C)no2)cc1NC(=O)c1cnc2ccccn12 [F34] is less than 200 nM?
A: criterion met

Q: Bench note: check whether Cc1ccc(-c2nc(-c3ccc(C)c(NC(=O)c4cnc5ccccn45)c3)no2)cn1 [F50] shows IC50 below 200 nM
A: criterion not met

Q: Criterion: IC50 strictly below 200 nM. Is it met by Cc1ccc(-c2noc(-c3ccccc3N3CCOCC3)n2)cc1NC(=O)c1cnc2ccccn12 [F51] ?
A: criterion met

Q: Please let me know if Cc1ccc(-c2nc(-c3cnccn3)no2)cc1NC(=O)c1cnc2ccccn12 [F25] shows IC50 below 200 nM.
A: criterion not met

Q: Threshold test, IC50 < 200 nM: Cc1ccc(-c2nc(-c3cccnc3Cl)no2)cc1NC(=O)c1cnc2ccccn12 [F44]
A: criterion not met

Q: Is it true that IC50 reported for Cc1ccc(-c2nc(-c3ccc(C(F)(F)F)cn3)no2)cc1NC(=O)c1cnc2ccccn12 [F30] is less than 200 nM?
A: criterion not met

Q: Dear colleague, could you confirm whether IC50 of Cc1ccc(-c2nc(COc3ccccc3)no2)cc1NC(=O)c1cnc2ccccn12 [F32] falls below 200 nM? Thanks.
A: criterion not met

Q: Here's an entry: COc1ccccc1Cc1noc(-c2ccc(C)c(NC(=O)c3cnc4ccccn34)c2)n1 [F45] . Is its IC50 below 200 nM?
A: criterion met
